assayed-target: T1, human LAP-TGFB1 Fc fusion (human)
T1 construct: also called human LAP-TGFβ1-Fc; human LAP-TGFβ-Fc isoform 1
T1 sequence (chain, as listed by the source limits assumed): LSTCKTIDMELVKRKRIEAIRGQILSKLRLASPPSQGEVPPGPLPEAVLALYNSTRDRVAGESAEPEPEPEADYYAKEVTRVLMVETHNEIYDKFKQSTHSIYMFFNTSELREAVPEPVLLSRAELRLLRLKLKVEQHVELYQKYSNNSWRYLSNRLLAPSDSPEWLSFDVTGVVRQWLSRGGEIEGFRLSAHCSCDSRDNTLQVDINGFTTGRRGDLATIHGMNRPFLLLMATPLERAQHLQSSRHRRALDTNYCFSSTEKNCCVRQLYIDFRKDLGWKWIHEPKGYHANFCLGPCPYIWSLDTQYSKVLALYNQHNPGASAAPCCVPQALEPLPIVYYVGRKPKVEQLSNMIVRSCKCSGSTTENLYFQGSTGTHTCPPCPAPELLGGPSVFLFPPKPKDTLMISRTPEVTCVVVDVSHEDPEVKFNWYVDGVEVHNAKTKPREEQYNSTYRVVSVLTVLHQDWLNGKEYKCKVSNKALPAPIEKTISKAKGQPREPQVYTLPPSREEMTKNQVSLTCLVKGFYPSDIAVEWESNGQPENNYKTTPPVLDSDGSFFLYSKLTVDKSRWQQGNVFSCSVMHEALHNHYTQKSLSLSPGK
method-description: SPR, antigen-Fc captured, Fab analyte
Procedure: This Example describes the isoform specificity of the yeast display mutants to bind to human LAP-TGFβ isoforms 1, 2, and 3 using surface plasmon resonance. […] Binding rate constants were determined by fitting the data with a 1:1 binding model (GE Healthcare Biacore T200 Evaluation software 3.0).
For each entry below, report its Fold improvement in KD value.
Number in fold, nothing else.

Req: I would be grateful if you could share the reported Fold improvement in KD for 63BJN (Fab, V domains shown, also called VH S31F W33D M34I / VL T30Y (63BJN)) VH: EVQLVQSGAEVKKPGASVKVSCKASGYTFTFYDIHWVRQAPGQGLEWMGRIDPQSGGIKYAQKFQGRATLTVDTSTSTAYMELSRLRSDDTAVYYCARWDYGGYFDVWGQGTLVTVSS VL: DIQMTQSPSSLSASVGDRVTITCRASQDIYNYLNWYQQKPGKAVKLLIYYTSRLHSGVPSRFSGSGSGTDYTLTISSLQPEDFATYFCQQGDTLPWTFGQGTKLEIKR .
Resp: 25

Req: I would be grateful if you could share the reported Fold improvement in KD for 74BJN (Fab, V domains shown, also called VH S31Y W33D M34L / VL T30Y T93D L94I (74BJN)) VH: EVQLVQSGAEVKKPGASVKVSCKASGYTFTYYDLHWVRQAPGQGLEWMGRIDPQSGGIKYAQKFQGRATLTVDTSTSTAYMELSRLRSDDTAVYYCARWDYGGYFDVWGQGTLVTVSS VL: DIQMTQSPSSLSASVGDRVTITCRASQDIYNYLNWYQQKPGKAVKLLIYYTSRLHSGVPSRFSGSGSGTDYTLTISSLQPEDFATYFCQQGDDIPWTFGQGTKLEIKR .
Resp: 196

Req: I would be grateful if you could share the reported Fold improvement in KD for 73BJN (Fab, V domains shown, also called VH W33D / VL T30Y (73BJN)) VH: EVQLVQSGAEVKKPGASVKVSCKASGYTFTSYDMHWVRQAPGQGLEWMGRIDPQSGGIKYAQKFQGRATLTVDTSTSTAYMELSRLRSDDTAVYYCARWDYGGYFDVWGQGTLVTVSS VL: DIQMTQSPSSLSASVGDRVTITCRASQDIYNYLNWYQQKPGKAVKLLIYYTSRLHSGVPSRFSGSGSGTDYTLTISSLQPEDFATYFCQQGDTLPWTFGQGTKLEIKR .
Resp: 133

Req: I would be grateful if you could share the reported Fold improvement in KD for 77BJN (Fab, V domains shown, also called VH W33D I58V / VL T30Y R53V T93E (77BJN)) VH: EVQLVQSGAEVKKPGASVKVSCKASGYTFTSYDMHWVRQAPGQGLEWMGRIDPQSGGVKYAQKFQGRATLTVDTSTSTAYMELSRLRSDDTAVYYCARWDYGGYFDVWGQGTLVTVSS VL: DIQMTQSPSSLSASVGDRVTITCRASQDIYNYLNWYQQKPGKAVKLLIYYTSVLHSGVPSRFSGSGSGTDYTLTISSLQPEDFATYFCQQGDELPWTFGQGTKLEIKR .
Resp: 1540

Req: I would be grateful if you could share the reported Fold improvement in KD for 65BJN (Fab, V domains shown, also called VH W33D M34L W99Y Y101Q / VL T30Y N31Y (65BJN)) VH: EVQLVQSGAEVKKPGASVKVSCKASGYTFTSYDLHWVRQAPGQGLEWMGRIDPQSGGIKYAQKFQGRATLTVDTSTSTAYMELSRLRSDDTAVYYCARYDQGGYFDVWGQGTLVTVSS VL: DIQMTQSPSSLSASVGDRVTITCRASQDIYYYLNWYQQKPGKAVKLLIYYTSRLHSGVPSRFSGSGSGTDYTLTISSLQPEDFATYFCQQGDTLPWTFGQGTKLEIKR .
Resp: 10

Req: I would be grateful if you could share the reported Fold improvement in KD for 56BJN (Fab, V domains shown, also called VH W33D M34I Q54Y / VL (56BJN)) VH: EVQLVQSGAEVKKPGASVKVSCKASGYTFTSYDIHWVRQAPGQGLEWMGRIDPYSGGIKYAQKFQGRATLTVDTSTSTAYMELSRLRSDDTAVYYCARWDYGGYFDVWGQGTLVTVSS VL: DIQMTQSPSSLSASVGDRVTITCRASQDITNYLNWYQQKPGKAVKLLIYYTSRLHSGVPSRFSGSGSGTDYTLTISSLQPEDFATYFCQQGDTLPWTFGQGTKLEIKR .
Resp: 1

Req: I would be grateful if you could share the reported Fold improvement in KD for 75BJN (Fab, V domains shown, Label says VL T30Y but the printed LCDR1 reads F at 30; also called VH S31K W33D S55D I58F / VL T30Y R53Y T93E (75BJN)) VH: EVQLVQSGAEVKKPGASVKVSCKASGYTFTKYDMHWVRQAPGQGLEWMGRIDPQDGGFKYAQKFQGRATLTVDTSTSTAYMELSRLRSDDTAVYYCARWDYGGYFDVWGQGTLVTVSS VL: DIQMTQSPSSLSASVGDRVTITCRASQDIFNYLNWYQQKPGKAVKLLIYYTSYLHSGVPSRFSGSGSGTDYTLTISSLQPEDFATYFCQQGDELPWTFGQGTKLEIKR .
Resp: 1180

Req: I would be grateful if you could share the reported Fold improvement in KD for 61BJN (Fab, V domains shown, also called VH S31D W33D G57D I58H K59D W99Y Y101H / VL T30Y (61BJN)) VH: EVQLVQSGAEVKKPGASVKVSCKASGYTFTDYDMHWVRQAPGQGLEWMGRIDPQSGDHDYAQKFQGRATLTVDTSTSTAYMELSRLRSDDTAVYYCARYDHGGYFDVWGQGTLVTVSS VL: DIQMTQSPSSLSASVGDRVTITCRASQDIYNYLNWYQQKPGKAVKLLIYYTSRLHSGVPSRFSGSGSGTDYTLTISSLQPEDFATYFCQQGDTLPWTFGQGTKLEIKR .
Resp: 1

Req: I would be grateful if you could share the reported Fold improvement in KD for 81BJN (Fab, V domains shown, also called VH S31E W33D K59R Y104Q V107A / VL T30Y R53V (81BJN)) VH: EVQLVQSGAEVKKPGASVKVSCKASGYTFTEYDMHWVRQAPGQGLEWMGRIDPQSGGIRYAQKFQGRATLTVDTSTSTAYMELSRLRSDDTAVYYCARWDYGGQFDAWGQGTLVTVSS VL: DIQMTQSPSSLSASVGDRVTITCRASQDIYNYLNWYQQKPGKAVKLLIYYTSVLHSGVPSRFSGSGSGTDYTLTISSLQPEDFATYFCQQGDTLPWTFGQGTKLEIKR .
Resp: 12700

Req: I would be grateful if you could share the reported Fold improvement in KD for 67BJN (Fab, V domains shown, also called VH W33D / VL T30Y R53V (67BJN)) VH: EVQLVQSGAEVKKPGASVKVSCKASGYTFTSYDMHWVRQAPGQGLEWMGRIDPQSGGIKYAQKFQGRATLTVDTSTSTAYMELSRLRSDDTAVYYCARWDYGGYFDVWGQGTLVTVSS VL: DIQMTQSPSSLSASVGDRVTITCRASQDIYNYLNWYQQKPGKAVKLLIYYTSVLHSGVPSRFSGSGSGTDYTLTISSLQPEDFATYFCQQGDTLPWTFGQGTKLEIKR .
Resp: 512

Source: patent US20230272056A1
